system: PPARg DBDmut:RXRa IVT, anti-PPARg (DBD mutation: PPARg1 K132A/R137A, NR concentration 270 nM, RXRa partner concentration 90 nM); test: PBM binding z-score (relative to random genomic background probes); higher = stronger binding; sequences stand for … in GC…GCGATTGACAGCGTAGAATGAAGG

SEQUENCE_STRING | PBM binding z-score
CGTCAAAGTTCAAGGTAAGGTAACAGAAAGCAGC | 0.246
AGAATGAGCTTATACGTAGATCAGGGAAGAAAGT | 0.558
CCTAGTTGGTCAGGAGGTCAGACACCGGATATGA | 0.271
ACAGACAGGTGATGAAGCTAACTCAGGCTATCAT | 0.338
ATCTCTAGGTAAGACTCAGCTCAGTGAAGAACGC | 0.287
CGTCTAAGGTCAATGCTAGGTCAGTGAAAGCATT | -0.172
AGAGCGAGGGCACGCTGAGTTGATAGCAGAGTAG | -0.714
GGTGCTAGGTCAACTGATGGTCAGCTAAAGCTCG | -0.202
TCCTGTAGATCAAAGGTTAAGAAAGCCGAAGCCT | -0.37
CCGACTGGGGCAGAAAGGTTACCATCCCATCCGG | -0.348
AGAATGAGGTTCTTAAGATCAGGGAATTGCGGTC | 0.378
CCTTACGGGACAAGGTTATAGCACGGGTGGTACG | -0.507
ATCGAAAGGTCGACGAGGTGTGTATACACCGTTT | -0.0457
CGAACTAGGTCATTGACTGGACAGTGAATAGTAA | 5.21
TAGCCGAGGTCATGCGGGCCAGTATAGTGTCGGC | 1.82
TCGAATAGGTTAGTCGGGGCATTCAGCCAACATA | -0.355
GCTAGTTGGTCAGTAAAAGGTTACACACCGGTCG | -0.658
TCATATAAGTAATACAGGTGAAAGTCGGCATCTA | 0.985
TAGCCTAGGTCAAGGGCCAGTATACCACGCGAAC | -0.167
TCGAGTAGGTTAGTCGGGGCCTTCAGCCAACATA | -1.4
AATACAGGGCCACTAGGCCAGAGTAGGTACGAAT | 0.705
CCTCGGAGGACAACAGGAGGGCAGAGCTGCCAGA | -2.18
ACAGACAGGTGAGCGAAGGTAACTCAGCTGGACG | 0.567
TCATATAGGTAAACAGTTGAAAGTCCGTAAGTTA | 1.41
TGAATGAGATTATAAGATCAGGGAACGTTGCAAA | 0.555
GTATCAAGGTGAATAGGTCGTTGATGAGTAGGCG | 1.21

###

tested on: PPARg DBDmut IVT, anti-PPARg (DBD mutation: PPARg1 K132A/R137A, NR concentration 270 nM); experiment: PBM binding z-score (relative to random genomic background probes); higher = stronger binding; sequences stand for … in GC…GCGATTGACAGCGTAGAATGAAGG
PARAMETER: PBM binding z-score

SEQUENCE_STRING | VALUE_OBSERVED
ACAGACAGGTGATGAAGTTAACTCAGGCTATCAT | 0.239
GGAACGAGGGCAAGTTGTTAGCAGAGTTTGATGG | -0.269
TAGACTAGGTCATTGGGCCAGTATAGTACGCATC | 0.786
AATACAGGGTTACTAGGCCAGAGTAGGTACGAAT | 1.12
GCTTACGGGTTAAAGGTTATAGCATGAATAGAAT | 1.12
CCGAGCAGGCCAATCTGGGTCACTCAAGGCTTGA | -1.1
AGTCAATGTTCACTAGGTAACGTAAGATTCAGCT | 0.776
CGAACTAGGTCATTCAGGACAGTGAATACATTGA | 1.68
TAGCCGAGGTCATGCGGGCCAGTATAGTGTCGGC | 0.598
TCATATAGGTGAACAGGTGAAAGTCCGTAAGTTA | 1.36
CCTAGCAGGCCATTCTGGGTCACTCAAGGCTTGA | -1.57
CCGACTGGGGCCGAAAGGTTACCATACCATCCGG | -1.62
CGGACTAGGTCATCCAGGACAGTGAATACATTGA | 0.792
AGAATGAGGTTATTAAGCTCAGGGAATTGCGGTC | 0.126
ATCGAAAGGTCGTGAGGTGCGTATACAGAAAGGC | 0.404
GGAACGAGGGCAAGTTTATAGCAGAGTTTGATGG | -0.37
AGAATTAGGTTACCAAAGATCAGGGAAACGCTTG | 0.973
GCTAGCAGGCCATTTGGGTCTCTCAATGACGGGC | -1.65
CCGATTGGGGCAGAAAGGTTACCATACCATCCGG | -0.679
CAAACTAGGTTACAGAGGTCAAAGTCCGTGCGTA | 1.29
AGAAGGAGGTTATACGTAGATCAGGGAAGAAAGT | 0.617
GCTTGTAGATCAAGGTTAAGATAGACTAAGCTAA | -0.396
ACTATTAGTTGACTTAGTGCAACCGATACGACGC | 0.707
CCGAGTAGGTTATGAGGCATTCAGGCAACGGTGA | -0.318
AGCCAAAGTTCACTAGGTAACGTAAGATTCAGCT | 0.266
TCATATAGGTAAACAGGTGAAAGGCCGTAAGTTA | 1.36
ACTAGTTGGTCAGCTGAGCTCACACACAATTCGG | 0.574

###

test system: PPARg:RXRa 270nM:90nM, anti-RXR (NR concentration 270 nM, RXRa partner concentration 90 nM); experiment: PBM binding z-score (relative to random genomic background probes); higher = stronger binding; sequences stand for … in GC…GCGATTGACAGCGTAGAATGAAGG
PARAMETER: PBM binding z-score

SEQUENCE_STRING | VALUE_OBSERVED
TCGAGTAGGATAGGGGCATTCAGAATGGCGTCGA | 0.573
ATATGTACGTTACATCCGGGTCATTCAGGCTATG | 1.41
TCTAGTTGGTCACGCAGGTCACACACGACGGGTA | 2.99
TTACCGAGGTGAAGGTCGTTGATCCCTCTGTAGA | 3.81
ATCTCTAGGTAAGACTCAGTTCAGTGACGAACGC | 0.379
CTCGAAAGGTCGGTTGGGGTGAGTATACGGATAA | 1.47
ACTAGTTGGTCAGCTGAGGTCATACACAATTCGG | 1.72
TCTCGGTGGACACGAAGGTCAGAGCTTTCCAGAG | 2.38
CGAACGAGGCCATGAGTTGATAGCAAATGCCGAT | 0.586
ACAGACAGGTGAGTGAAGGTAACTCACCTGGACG | 0.216
ATATGTAGGTTAAGGGTCATTCAAGTTGGTTCGC | 9.66
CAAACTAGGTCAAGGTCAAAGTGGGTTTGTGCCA | 7.89

###

test system: PPARg:RXRa 90nM:30nM, anti-RXR (NR concentration 90 nM, RXRa partner concentration 30 nM); assay: PBM binding z-score (relative to random genomic background probes); higher = stronger binding; sequences stand for … in GC…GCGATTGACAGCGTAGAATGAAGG
Note to self: values exactly at 1 are 1.0. So PBM binding z-score at or above 1 is 1.0, below is 0.0.

SEQUENCE_STRING | QUALITATIVE_LABEL
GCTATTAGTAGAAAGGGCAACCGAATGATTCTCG | 1.0
CAAACTAGATCACCGGAAGGTCAAAGTCCGCATG | 1.0
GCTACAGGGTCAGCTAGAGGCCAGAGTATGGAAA | 1.0
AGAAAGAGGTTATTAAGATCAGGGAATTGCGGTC | 1.0
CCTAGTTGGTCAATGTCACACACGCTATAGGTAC | 0.0
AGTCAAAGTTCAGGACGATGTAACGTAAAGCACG | 1.0
TGAATGAGGTTAAAGATCAGGTAACGTGGCGTCG | 1.0
CCGAGTAGGTCATGGGGCATTCAGGCAACGGTGA | 1.0
TCGAGTAGGTTACCAATAGGGCATTCAGCTTTCT | 1.0
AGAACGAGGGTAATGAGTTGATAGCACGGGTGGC | 0.0
TCTATTAGTTGATTAGGGCAAGCGAAACAGCGGA | 1.0
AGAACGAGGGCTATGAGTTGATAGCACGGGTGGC | 0.0
CCGACTGGGGCATTAGGTTACCATAAGCCAGCCC | 1.0
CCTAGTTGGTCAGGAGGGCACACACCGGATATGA | 0.0
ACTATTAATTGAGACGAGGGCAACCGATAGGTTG | 0.0
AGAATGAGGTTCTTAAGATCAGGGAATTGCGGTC | 0.0
TCTCGGAGGACACGAACGTCAGAGCTTTCCAGAG | 1.0
AGTCAAAGTTCATTTAGGTAACGTAAGATATGCT | 1.0
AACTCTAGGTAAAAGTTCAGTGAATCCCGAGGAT | 1.0
TCTATTCGTTGATTAGGGCAACCGAAACAGCGGA | 1.0
CAAACTAGGTCAAGAGGTCAATGTCCGCTTCCCG | 1.0
CAAACTTGGTCAAGGTCAAAGTCGGTTTGTGCCA | 1.0
GCGACTGGGGCAAAGCAGATTACCATAAGGTTGG | 0.0
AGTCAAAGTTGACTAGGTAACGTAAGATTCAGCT | 1.0
CCTTACGGGTCAAGGTTATAGCACGGGTGGTACG | 1.0
GCTGCTAGGTCAGGTTGTTCAGCTAACGGGTACG | 0.0
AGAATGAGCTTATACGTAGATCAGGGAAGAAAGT | 0.0
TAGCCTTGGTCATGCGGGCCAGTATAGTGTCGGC | 0.0
TCGAGTAGGTTAGTTGGGGCATTCAGCCAACATA | 0.0
GCTGATAGGTCAACTGATGGTCAGCTAAAGCTCG | 1.0
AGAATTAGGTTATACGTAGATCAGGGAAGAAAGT | 1.0
ACCATTAGTTGAGACGAGGGCAACCGATAGGTTG | 0.0
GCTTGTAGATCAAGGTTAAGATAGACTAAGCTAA | 1.0
CAAACTAGGTGACCGGAAGGTCAAAGTCCGCATG | 1.0
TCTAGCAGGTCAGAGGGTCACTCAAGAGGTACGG | 1.0
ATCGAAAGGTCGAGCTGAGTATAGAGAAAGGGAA | 1.0
AGTCAAAGTTCAGGACGAGGTTACGTAAAGCACG | 1.0
CCTCGGAGGACAAAAGGAGGTCAGAGCTGCCAGA | 0.0
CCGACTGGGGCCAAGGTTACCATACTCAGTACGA | 1.0
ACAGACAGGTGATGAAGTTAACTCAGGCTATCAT | 0.0
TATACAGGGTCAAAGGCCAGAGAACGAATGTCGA | 1.0
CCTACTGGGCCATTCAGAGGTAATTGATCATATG | 0.0
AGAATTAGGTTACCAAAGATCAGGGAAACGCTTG | 1.0
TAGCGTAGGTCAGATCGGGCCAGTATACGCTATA | 0.0
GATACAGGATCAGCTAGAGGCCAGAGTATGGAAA | 0.0
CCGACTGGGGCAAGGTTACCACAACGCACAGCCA | 1.0
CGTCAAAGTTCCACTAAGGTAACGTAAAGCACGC | 0.0
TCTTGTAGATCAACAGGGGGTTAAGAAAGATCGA | 1.0
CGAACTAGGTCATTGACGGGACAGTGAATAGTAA | 1.0
TCTGCTAGGTCAGTTGGTCAGCTAGCGAGCTGCC | 1.0
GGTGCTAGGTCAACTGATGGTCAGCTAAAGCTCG | 1.0
